B1: POU domain, class 2, transcription factor 1, residues 285 to 354; numbered along this chain, P14859 (parent)
chain: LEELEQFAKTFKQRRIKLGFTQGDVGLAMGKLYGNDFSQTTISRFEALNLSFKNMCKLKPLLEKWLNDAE

# Variants of: B1
# assay notes: abundance fitness (aPCA) (normalised: wild type 0, dead -1); higher = more abundant; growth selection in yeast, the domain comes from the species named
# experimental context: Homo sapiens
Please go through the items and note down their abundance fitness.
Give bare numbers.

mutant_id=C56T value_observed=0.023
mutant_id=F7R value_observed=-0.437
mutant_id=L61M value_observed=-0.053
mutant_id=R44H value_observed=-0.027
mutant_id=L61S value_observed=-0.078

Provide reported abundance fitness for each item, in the same order as listed.
1. F52E
2. A47P
3. N49T
4. S43N
5. E63Q

[-0.035, -0.964, 0.03, 0.005, -0.07]

Can you give me abundance fitness for all of these, one by one?
1. A69N
2. R44N
3. Q39R
4. Y33N
5. F37Q
6. M55D
7. S43H
8. F37K

1. -0.04
2. -0.165
3. 0.005
4. -0.075
5. -0.214
6. -0.381
7. -0.077
8. -0.184

Dear colleague, could you please provide abundance fitness for the variants listed below?
1. A47S
2. W65M
3. D36A
4. F7G
5. K59R
6. R14V
7. Q6E

1. -0.048
2. -0.22
3. -0.049
4. -0.07
5. -0.005
6. -0.004
7. 0.034

Hi there! I need abundance fitness for each item below, if you can.
1. N35Y
2. K17T
3. T10K
4. K57W
5. L66N

1: -0.494; 2: -0.029; 3: -0.014; 4: -0.042; 5: -0.848
